Tested on: Fibroblast
EXPERIMENT: Incucyte cell viability with human fibroblast; note: unitless GR value; below 1 slowed growth and below 0 cell loss
Type: toxicity, cell-based
CONDITIONS_USED: 0 h, 10 µM, compound concentration 10 uM, replicate number 1
Please provide measured Growth Rate for the entries that follow.
Give bare numbers.

Examples with answers:
{"columns": ["COMPOUND", "EXPERIMENTAL_SYSTEM", "ASSAY_VALUE"],
 "data": [
  ["CNC(=O)c1ccc2c(c1)NC(=O)/C2=C(\\Nc1ccc(CN2CCCCC2)cc1)c1ccccc1.Cl.O", "Fibroblast", -1],
  ["CC(C)(C)c1cnc(CSc2cnc(NC(=O)C3CCNCC3)s2)o1 [BMS-387032]", "Fibroblast", -1],
  ["Cc1ccccc1Oc1cc(-n2c(=O)cc(C(F)(F)F)[nH]c2=O)c2ccccc2c1Cl [BAY-069]", "Fibroblast", 0.91],
  ["CC(=O)O.NCCCc1c(C(=O)O)[nH]c2ccc(C(=O)Nc3ccccc3)cc12", "Fibroblast", 0.6]
]}

Now for a further compound.
Need Growth Rate, item O=C1NC(=Nc2c(Cl)cccc2Cl)S/C1=C\c1ccc2nccnc2c1
0.49

###

Tested on: HEK-293T
EXPERIMENT: Incucyte cell viability with HEK293T; note: unitless GR value; below 1 slowed growth and below 0 cell loss
Format: toxicity, cell-based
CONDITIONS_USED: human, 12 h, 10 µM, compound concentration 10 uM, replicate number 1
Numbered stars: 1 amine (or outer) side, 2 acyl side, 3 side chain; on linkers, the order of the positions; unused ones are H or OH. Bridge positions count the residues as written; N and C are the ends. Square brackets hold non-standard residues; d marks the D form. Peptide text beside a SMILES is read from it. I, II: the chains in the order shown. Hexamethylenediamine = C(CCCN[*:2])CCN[*:1]; Dip = N[C@H](C(=O)O)C(c1ccccc1)c1ccccc1; Chg = N[C@H](C(=O)O)C1CCCCC1; NMeA = CN[C@@H](C)C(=O)O
Please provide measured Growth Rate for the entries that follow.

Examples with answers:
{"columns": ["COMPOUND", "EXPERIMENTAL_SYSTEM", "ASSAY_METRIC", "ASSAY_VALUE"],
 "data": [
  ["CN[C@@H](C)C(=O)N[C@H](C(=O)N1CCC[C@H]1C(=O)N[C@H](C(=O)NCCCCCCNC(=O)[C@@H](NC(=O)[C@@H]1CCCN1C(=O)[C@@H](NC(=O)[C@H](C)NC)C1CCCCC1)C(c1ccccc1)c1ccccc1)C(c1ccccc1)c1ccccc1)C1CCCCC1 (I: H-[NMeA][Chg]P[Dip] / II: H-[NMeA][Chg]P[Dip]; linker I:C-II:C via Hexamethylenediamine)", "HEK-293T", "Growth Rate", -0.42],
  ["COc1cc2nc(C)nc(N[C@H](C)c3cc(N)cc(C(F)(F)F)c3)c2cc1O[C@H]1CCOC1", "HEK-293T", "Growth Rate", 0.88],
  ["CC(=O)Nc1nc2c(Oc3cc(-c4ccc(C(F)(F)F)cc4)ncn3)cccc2s1", "HEK-293T", "Growth Rate", 0.82],
  ["CC(C)c1nc2c(c3c1[C@@H](c1ccc(C(F)(F)F)cc1)OC31CCOCC1)[C@@H](O)CC(C)(C)C2.Cl", "HEK-293T", "Growth Rate", 0.73],
  ["Cc1cccc(CC(=O)N2CCc3c2ccc(-c2cn(C)c4ncnc(N)c24)c3F)n1", "HEK-293T", "Growth Rate", 0.24],
  ["O=C(Nc1ccc(Cl)c(-c2ccccn2)c1)c1cccc(COc2ccc(Br)cc2CNCCO)c1.O=CO", "HEK-293T", "Growth Rate", -0.44],
  ["COc1ncc2cc(C(=O)Nc3cc(C(=O)NCc4cccc(Cl)c4)ccc3Cl)c(=O)[nH]c2n1", "HEK-293T", "Growth Rate", 0.64],
  ["Cc1onc(O)c1CC(N)C(=O)O [(R,S)-AMPA]", "HEK-293T", "Growth Rate", 0.21],
  ["CN[C@@H](C)C(=O)N[C@H](C(=O)N1CCC[C@H]1C(=O)Nc1snnc1-c1ccccc1)C1CCCCC1", "HEK-293T", "Growth Rate", -0.36],
  ["Cl.Cl.Nc1nccc(-c2c(-c3ccc(F)cc3)ncn2C2CCCCC2)n1", "HEK-293T", "Growth Rate", 0.99]
]}

// input: 8 compounds below; output: Growth Rate for each
1. CCN1/C(=C/C(C)=O)Sc2ccc(OC(C)=O)cc21
2. COc1ccc(CCCN2CCC(COC(c3ccccc3)c3ccccc3)CC2)cc1.Cl
3. Cc1ccc(-c2cn3nc(C(=O)NC4(c5ccc(F)cc5)CN(C)C4)c(C(C)C)c3c(=O)[nH]2)cc1C
4. O=C(Nc1ccc(Oc2ccc(Cl)cc2)c(Cl)c1)c1cc(I)cc(I)c1O [RAFOXANIDE]
5. c1ccc(C2CCN(c3cnc4c(N5CCOCC5)nccn34)CC2)cc1
6. COc1cc(OC)cc(-c2cc3cnc(N)nc3nc2NC(=O)NC(C)(C)C)c1
7. COc1cc2ncnc(Nc3ccc(F)c(Cl)c3)c2cc1OCCN(C)C[C@H](C)O
8. CCC(=O)Nc1cc(Nc2cc(NC3CC3)n3ncc(C#N)c3n2)ccc1C

0.1
-0.23
0.66
-0.61
0.94
0.8
0.61
0.79
